Where a name gives a salt, the structure may show the parent alone.
assay endpoint: melting point

Prompt: Suppose we examine the compound Cc1nc2ccccn2c(=O)c1CCN1CC=C(c2c[nH]c3ccc(F)cc23)CC1 (as salt: salt) [Compound 7] ; what melting point value has been reported?
Completion: 226 to 227 °C (dec.)

Prompt: Suppose we examine the compound CSc1nc(C)c(CCN2CC=C(c3c[nH]c4ccccc34)CC2)c(=O)n1C (as salt: salt) ; what melting point value has been reported?
Completion: 245 to 246 °C

Prompt: // melting point lookup, key: Cc1ccn2c(=O)c(CCN3CC=C(c4c[nH]c5ccccc45)CC3)c(C)nc2c1 (as salt: HCl) [Compound 15]
Completion: 261 to 264 °C

Prompt: I am curious: what melting point value has been reported for Cc1nc2c(C)cccn2c(=O)c1CCN1CC=C(c2c[nH]c3ccc(F)cc23)CC1 (as salt: salt) ?
Completion: 229 to 230 °C

All values here come from patent US7371769B2.
